Here's a roundup of IC50 values tested on DNA (cytosine-5)-methyltransferase 1 (Homo sapiens, UniProt P26358), taken from various published works.
Respond numerically; units are µM and should not be typed.

>>> print(df.to_string())
                                   compound                              assay_system  readout_number
0  CCc1c(C#N)c(SC(C(N)=O)c2ccccc2)nc(N(C)CCN2CCOCC2)c1C#N (centres unmarked)  DNA (cytosine-5)-methyltransferase 1 (Homo sapiens, UniProt P26358)            0.58
1  CCc1c(C#N)c(SC(C(N)=O)c2ccc(OS(C)(=O)=O)cc2)nc(N(C)C)c1C#N (racemic)  DNA (cytosine-5)-methyltransferase 1 (Homo sapiens, UniProt P26358)           0.107
2  Nc1ncnc2c1ncn2[C@H]1O[C@@H](CSCCNc2cc(Cl)ncn2)[C@H](O)[C@@H]1O  DNA (cytosine-5)-methyltransferase 1 (Homo sapiens, UniProt P26358)              48
3  CCc1c(C#N)c(S[C@@H](C(=O)NP(=O)(O)O)c2ccc(OS(C)(=O)=O)cc2)nc(N(C)C)c1C#N  DNA (cytosine-5)-methyltransferase 1 (Homo sapiens, UniProt P26358)            16.1
4  COc1cc(OC)cc(N(CC(=O)c2ccc(O)c(O)c2O)CC(=O)c2ccc(O)c(O)c2O)c1  DNA (cytosine-5)-methyltransferase 1 (Homo sapiens, UniProt P26358)            15.6
5  COc1ccc2c(-c3ccc(O)cc3)cn(CC(=O)c3ccc(O)cc3)c2c1  DNA (cytosine-5)-methyltransferase 1 (Homo sapiens, UniProt P26358)            19.5

Name the recorded IC50 of "COc1ccc2c(-c3ccc(O)c(O)c3O)cn(CC(=O)c3ccc(O)c(O)c3O)c2c1" , assay system DNA (cytosine-5)-methyltransferase 1 (Homo sapiens, UniProt P26358).
3.53
